System: H460 cells
Experiment: alamarBlue H460 cell assay (antiproliferative/cytotoxicity)
Format: cell-based
Conditions: NCI-H460; H460 human lung carcinoma cells
pEC50: −log10 of the molar value.
Criterion: pEC50 meeting or surpassing 6. Met: 1 (yes). Not met: 0 (no).

Solved cases below.
Cc1ncc(C#Cc2c(C)ncnc2-c2ccccc2)cc1NS(C)(=O)=O = 0 (no)
CCc1ncnc(-c2ccnc(C)c2)c1C#Cc1cnc(C)c(NS(=O)(=O)c2ccc(Cl)cc2)c1 = 1 (yes)
CCc1ncnc(-c2ccc(OC)c(OC)c2)c1C#Cc1cnc(C)c(NS(C)(=O)=O)c1 = 1 (yes)

Prompt: Item CCc1ncnc(-c2cccc(C(F)(F)F)c2OC)c1C#Cc1cnc(C)c(NS(C)(=O)=O)c1 with pEC50 of 6 or above?
Response: 1 (yes)

Prompt: Evaluate CCc1ncnc(-c2ccnc(OC)c2)c1C#Cc1cnc(C)c(NS(C)(=O)=O)c1 : pEC50 at minimum 6?
Response: 1 (yes)

* * *

Listed next: entries and their corresponding IC50.
Molecular target: PI3Kalpha (Homo sapiens, UniProt P42336)
Construct: His (N)
Sequence (P27986 whole entry): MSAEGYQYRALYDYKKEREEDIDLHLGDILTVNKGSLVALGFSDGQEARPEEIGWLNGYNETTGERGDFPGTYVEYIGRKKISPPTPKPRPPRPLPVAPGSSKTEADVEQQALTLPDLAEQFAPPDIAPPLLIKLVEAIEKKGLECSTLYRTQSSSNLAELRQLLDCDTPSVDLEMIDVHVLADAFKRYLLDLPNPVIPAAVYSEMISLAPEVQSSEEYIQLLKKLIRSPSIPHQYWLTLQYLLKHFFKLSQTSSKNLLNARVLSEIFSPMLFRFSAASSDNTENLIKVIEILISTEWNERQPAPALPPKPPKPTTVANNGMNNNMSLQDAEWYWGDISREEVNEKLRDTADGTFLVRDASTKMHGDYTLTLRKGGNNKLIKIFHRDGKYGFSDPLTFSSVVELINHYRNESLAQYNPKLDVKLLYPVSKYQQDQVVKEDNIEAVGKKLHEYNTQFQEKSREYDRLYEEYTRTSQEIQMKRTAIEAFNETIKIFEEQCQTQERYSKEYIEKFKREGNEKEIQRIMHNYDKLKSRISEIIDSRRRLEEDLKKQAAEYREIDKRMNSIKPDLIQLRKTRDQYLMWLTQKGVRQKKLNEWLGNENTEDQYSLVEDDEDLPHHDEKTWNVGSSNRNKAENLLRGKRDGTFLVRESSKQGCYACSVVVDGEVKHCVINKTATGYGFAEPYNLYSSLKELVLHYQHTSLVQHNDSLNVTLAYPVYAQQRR
Sequence (P42336 whole entry): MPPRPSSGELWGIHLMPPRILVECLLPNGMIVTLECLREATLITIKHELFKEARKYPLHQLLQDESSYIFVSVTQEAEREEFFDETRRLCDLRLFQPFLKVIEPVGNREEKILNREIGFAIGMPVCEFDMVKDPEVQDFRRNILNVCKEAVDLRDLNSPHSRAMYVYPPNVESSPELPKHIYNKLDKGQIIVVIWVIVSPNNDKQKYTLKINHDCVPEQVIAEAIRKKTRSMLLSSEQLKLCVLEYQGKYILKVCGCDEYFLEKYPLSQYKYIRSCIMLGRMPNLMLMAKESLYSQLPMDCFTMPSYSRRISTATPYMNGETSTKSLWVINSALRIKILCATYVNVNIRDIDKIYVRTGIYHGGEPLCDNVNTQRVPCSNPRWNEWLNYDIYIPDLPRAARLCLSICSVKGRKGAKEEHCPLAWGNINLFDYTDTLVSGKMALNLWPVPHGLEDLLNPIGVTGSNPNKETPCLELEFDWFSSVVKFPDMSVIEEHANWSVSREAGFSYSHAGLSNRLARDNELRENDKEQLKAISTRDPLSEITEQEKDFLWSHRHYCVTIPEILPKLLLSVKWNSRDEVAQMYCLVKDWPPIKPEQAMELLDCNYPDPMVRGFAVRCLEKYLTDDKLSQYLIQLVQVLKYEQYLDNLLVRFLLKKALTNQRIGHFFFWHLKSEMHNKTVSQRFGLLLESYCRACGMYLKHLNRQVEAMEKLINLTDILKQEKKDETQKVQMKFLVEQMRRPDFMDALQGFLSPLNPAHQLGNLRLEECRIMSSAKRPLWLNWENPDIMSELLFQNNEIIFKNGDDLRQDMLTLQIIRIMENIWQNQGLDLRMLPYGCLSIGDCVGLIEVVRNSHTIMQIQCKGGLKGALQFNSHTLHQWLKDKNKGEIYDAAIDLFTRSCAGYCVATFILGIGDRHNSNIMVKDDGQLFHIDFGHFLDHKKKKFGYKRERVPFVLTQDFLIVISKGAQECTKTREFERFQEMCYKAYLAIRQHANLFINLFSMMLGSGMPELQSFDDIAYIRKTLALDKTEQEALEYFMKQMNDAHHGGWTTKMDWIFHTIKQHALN
Assay: Inhibition of PI3Kalpha-induced PIP-2 phosphorylation (filter-binding assay, 33P-ATP)
Details: PI3 Kinase alpha (p85alpha/His-p110alpha), 1 μM ATP; read-out: IC50 PI3Kα
Field format: number, assumed nM, no unit text.

Below, each entry is followed by its recorded IC50 result.
CCc1ncnc(-c2ccc(CN)cc2)c1C#Cc1cnc(C)c(NS(C)(=O)=O)c1 = 4
Cc1ccc(-c2ncnc(C)c2C#Cc2cnc(C)c(NS(C)(=O)=O)c2)cn1 = 3
CCc1ncnc(-c2ccnc(C)c2)c1C#Cc1cnc(C)c(NS(=O)(=O)c2ccc(Br)cc2C)c1 = 12
CCc1nc(N)nc(-c2ccc(C(=O)N3CCN(C)CC3)c(F)c2)c1C#Cc1cnc(C)c(NS(C)(=O)=O)c1 = 1
COc1ncc(C#Cc2c(C)nc(N)nc2-c2ccnc(C)c2)cc1NS(=O)(=O)c1ccc(F)cc1F = 0.36

Prompt: I have this compound here, CCc1ncnc(-c2ccc(CN)nc2)c1C#Cc1cnc(C)c(NS(=O)(=O)c2ccccc2)c1 , and I need its recorded IC50.
Response: 1

Prompt: Would you mind telling me what IC50 value was observed for CCc1nc(N)nc(-c2ccc(C)nc2)c1C#Cc1cnc(C)c(NS(=O)(=O)c2ccc(F)cc2F)c1 ?
Response: 0.56

* * *

System: BT474 cells
Test: alamarBlue BT474 cell assay (antiproliferative/cytotoxicity)
Assay type: cell-based
Conditions: BT-474 human breast cancer cell line, 5-6 days incubation
Description: The H460, MB453, U87, MCF7 and BT474 alamarBlue cell assays provide EC50 values indicative of the antiproliferative or cytotoxic effects of the compounds to respectively the H460 (human non small cell line cancer), MB-453 (breast cancer cell line), U87 (glioblastoma cell line), MCF7 (breast cancer cell line) and BT474 (breast cancer cell line). […] 3. […] Measure fluorescence by exciting at 530-560 nm and measuring emission at 590 nm 5. […]
Measurement Kind: EC50 (nM)
Write down the numeric answer in nM and omit the unit.

Example results:
COc1ncc(C#Cc2c(C)nc(N)nc2-c2ccnc(C)c2)cc1NS(C)(=O)=O [Example 21] = 295
CCc1ncnc(-c2ccnc(C)c2)c1C#Cc1cnc(C)c(NS(=O)(=O)c2ccccc2C)c1 [Example 89] = 198
CCc1ncnc(-c2ccnc(C)c2)c1C#Cc1cnc(C)c(NS(=O)(=O)c2ccc(Br)cc2C)c1 [Example 97] = 1530
Cc1cc(-c2ncnc(C)c2C#Cc2cnc(C)c(NS(C)(=O)=O)c2)ccn1 [Example 38] = 344
CCc1ncnc(-c2ccc(F)cc2F)c1C#Cc1cnc(C)c(NS(C)(=O)=O)c1 [Example 63] = 1540

Prompt: Which value of EC50 has been reported for CCc1nc(N)nc(-c2ccc(C3CC3)nc2)c1C#Cc1cnc(C)c(NS(C)(=O)=O)c1 [Example 13] in the records?
Response: 132

Prompt: Recorded EC50 for Cc1ccc(-c2ncnc(C)c2C#Cc2cnc(C)c(NS(C)(=O)=O)c2)cn1 [Example 40] , please?
Response: 597

Prompt: Record request: EC50 value, item CCc1ncnc(-c2ccnc(C)c2)c1C#Cc1cnc(C)c(NS(=O)(=O)c2cc(Cl)ccc2OC)c1 [Example 101]
Response: 102

Prompt: Param item = CCc1cc(-c2ncnc(CC)c2C#Cc2cnc(C)c(NS(C)(=O)=O)c2)ccn1 [Example 5] ; retrieve measured EC50.
Response: 117

Prompt: What value of EC50 has been recorded for this entry: CCc1ncnc(-c2ccc(CNC(=O)OC(C)(C)C)nc2)c1C#Cc1cnc(C)c(NS(=O)(=O)c2ccccc2)c1 [Example 50]
Response: 102

Prompt: Given CCOc1ccc(-c2ncnc(CC)c2C#Cc2cnc(C)c(NS(C)(=O)=O)c2)cc1OCC [Example 23] , state its recorded EC50.
Response: 119

Prompt: Please give the measured EC50 for this compound: CCc1ncnc(-c2ccc(C)nc2)c1C#Cc1cnc(C)c(NS(=O)(=O)c2ccc(F)cc2F)c1 [Example 9]
Response: 24

Prompt: I have this compound here, COc1ccc(-c2ncnc(C)c2C#Cc2cnc(OC)c(NS(=O)(=O)c3ccc(F)cc3F)c2)cc1OC [Example 45] , and I need its recorded EC50.
Response: 10

Prompt: Quick one: EC50 for CCc1ncnc(-c2ccc(CN)nc2)c1C#Cc1cnc(C)c(NS(=O)(=O)c2ccccc2)c1 [Example 106] ?
Response: 131

Prompt: Give the measured EC50 of CCc1nc(N)nc(-c2ccnc(C)c2)c1C#Cc1cnc(C)c(NS(=O)(=O)c2ccc(F)cc2F)c1 [Example 33] .
Response: 33

Prompt: Need EC50, item CCc1ncnc(-c2ccnc(C)c2)c1C#Cc1cnc(C)c(NS(=O)(=O)c2ccccc2OC)c1 [Example 96]
Response: 84

Prompt: Please report the recorded EC50 for Cc1ncc(C#Cc2c(C)ncnc2-c2ccccc2)cc1NS(C)(=O)=O [Example 42] .
Response: 1130

* * *

Tested on: H460 cells
Experiment: alamarBlue H460 cell assay (antiproliferative/cytotoxicity)
Assay type: cell-based
Settings: NCI-H460; H460 human lung carcinoma cells
Property: EC50; scope: individual molecules

Would you please look over these solved cases?
COc1ncc(C#Cc2c(C)nc(N)nc2-c2ccnc(C)c2)cc1NS(C)(=O)=O [Example 21] = 87 nM
CCc1nc(N)nc(-c2ccc(C)nc2)c1C#Cc1cnc(C)c(NS(=O)(=O)c2ccc(F)cc2F)c1 [Example 36] = 30 nM
CCc1ncnc(-c2ccnc(C)c2)c1C#Cc1cnc(C)c(NS(=O)(=O)c2ccc(C)cc2)c1 [Example 86] = 208 nM
CCc1ncnc(-c2cccc(OC(C)C)c2)c1C#Cc1cnc(C)c(NS(C)(=O)=O)c1 [Example 64] = 606 nM
CCc1ncnc(-c2ccc(CN)nc2)c1C#Cc1cnc(C)c(NS(=O)(=O)c2ccccc2)c1 [Example 106] = 393 nM
CCc1ncnc(-c2ccccc2)c1C#Cc1cnc(C)c(NS(C)(=O)=O)c1 [Example 52] = 1210 nM

Prompt: Reported EC50 for COc1ncc(C#Cc2c(C)ncnc2-c2ccc(C)nc2)cc1NS(=O)(=O)c1ccc(F)cc1F [Example 47] : what is it?
Response: 7 nM

Prompt: Dear colleague, I am looking for the recorded EC50 of the following molecule: CCc1ncnc(-c2ccc(OC)c(F)c2)c1C#Cc1cnc(C)c(NS(C)(=O)=O)c1 [Example 8]
Response: 241 nM

Prompt: Entry under review: CCOc1ccc(-c2ncnc(CC)c2C#Cc2cnc(C)c(NS(C)(=O)=O)c2)cc1OCC [Example 23] . Reported EC50?
Response: 109 nM

* * *

Each record here notes measured log10 EC50.
System: MB453 cells
Assay: alamarBlue MB453 cell assay (antiproliferative/cytotoxicity)
Assay type: cell-based
Conditions: Homo sapiens; MDA MB 453 breast cancer cell line
The common logarithm of EC50 in nM is what is listed.

The following compounds have reported results that may help.
CCc1ncnc(-c2ccc(C(=O)N3CCN(C)CC3)c(F)c2)c1C#Cc1cnc(C)c(NS(=O)(=O)c2ccc(F)cc2F)c1 [Example 27] = 1.52
CCc1ncnc(-c2ccc(C)nc2)c1C#Cc1cnc(C)c(NS(C)(=O)=O)c1 [Example 3] = 2.05
CCc1ncnc(-c2ccc(OC)cc2F)c1C#Cc1cnc(C)c(NS(C)(=O)=O)c1 [Example 71] = 2.75
CCc1cc(-c2ncnc(CC)c2C#Cc2cnc(C)c(NS(C)(=O)=O)c2)ccn1 [Example 5] = 1.73
CCc1ncnc(-c2ccnc(C)c2)c1C#Cc1cnc(C)c(NS(=O)(=O)c2ccc(C)cc2)c1 [Example 86] = 2.69

Prompt: Can you look up the measured log10 EC50 of Cc1ncc(C#Cc2c(C)ncnc2-c2cccc(C#N)c2)cc1NS(C)(=O)=O [Example 39] for me?
Response: 2.72

Prompt: Given Cc1cc(-c2ncnc(C)c2C#Cc2cncc(NS(C)(=O)=O)c2)ccn1 [Example 95] , state its recorded log10 EC50.
Response: 2.68

Prompt: Which measured log10 EC50 value corresponds to CCc1ncnc(-c2cccc(OC(C)C)c2)c1C#Cc1cnc(C)c(NS(C)(=O)=O)c1 [Example 64] ?
Response: 2.79

Prompt: Suppose we examine the compound Cc1cc(-c2ncnc(C)c2C#Cc2cnc(C)c(NS(C)(=O)=O)c2)ccn1 [Example 38] ; what log10 EC50 value has been reported?
Response: 2.50

Prompt: Endpoint output: log10 EC50 of COc1ncc(C#Cc2c(C)ncnc2-c2ccnc(C)c2)cc1NS(=O)(=O)c1ccc(F)cc1F [Example 44] . Value?
Response: 1.57

Prompt: Query: log10 EC50; subject: COc1ccc(-c2ncnc(C)c2C#Cc2cnc(OC)c(NS(=O)(=O)c3ccc(F)cc3F)c2)cc1OC [Example 45]
Response: 1.53

Prompt: So what does the record say about log10 EC50 for CCc1ncnc(-c2ccnc(C)c2)c1C#Cc1cnc(C)c(NS(=O)(=O)c2ccc(C)cc2C)c1 [Example 92] ?
Response: 2.99
